Test: amyloid nucleation score (Sup35N fusion, yeast selection) (log enrichment); library NNK2; higher = more nucleation; inactive = no reads after selection;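 also: zero at mode of non-aggregating sequences after 7 days selection at 30°C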

{"columns": ["substance", "amyloid nucleation score"],
 "data": [
  ["DSLYWSRCSSFRTKQEVSDM", 0.907],
  ["YLNGSSTTVSYRCWAMACSN", -0.448],
  ["VIIFFFVFRCMPDLIQVYCV", -1.72],
  ["SFPRRMPSD", 2.38],
  ["SFRDDICWVRWGSL", 0.251],
  ["SSFVIPSKR", -1.31],
  ["AMPSNMLGTSGSYDAC", 0.404],
  ["IYTWSIRIYRF", -0.778],
  ["KILFPVR", -0.927],
  ["LSIQLTEHA", 2.13],
  ["FGYAVVQRYYKWWIAMNTQA", -0.04],
  ["HRVQSGLCSKNSRE", 2.96],
  ["NKCEIKLRKWQSSP", -0.337],
  ["IDSADVSIVRCKTQVRRIMR", 5.62],
  ["SKNSYSAHPKL", 4.83],
  ["LVMVWFLNLVFCFGDFNSNR", 0.74],
  ["EVLSRDRSSAPFAVLLAGSR", 0.129],
  ["YYSFSGRATWGRNKSFMWVA", 0.089],
  ["YIRLQAIQSEVERSSVPVIK", 2.16],
  ["TYDWEFFNDYYQM", 0.161],
  ["RVRERIQIYLLLSGQDQFKM", 3.6],
  ["QKMRFYWLVMMAV", -0.283],
  ["VHICRTNDG", 0.632],
  ["AYWVQGCLLQMRMT", 0.891],
  ["DRRPNCIFLDGSYRRDV", 0.034],
  ["RCKWVRGVSRMPNHWN", 0.779],
  ["SYFYPCLRNLYLPLWWRSHS", -0.515],
  ["AINLGSDYKWSGMAFVKG", 0.285],
  ["CRSFAFTLSNMYLMM", 6.52],
  ["YLLYGWYTMLALHLALREHI", -0.098],
  ["CSSSVNCMFITC", 7.87],
  ["YIGPNKFLKQFDCLINFFLT", 3.08],
  ["PYSTTNGHSGVWLRWLKGPC", 0.569],
  ["SYILEFFHWIRSRLEYYGY", -1.5],
  ["PRSGSYYTFF", -0.672]
]}
